All values here come from PubChem BioAssay (Tox21).

Assay: qHTS assay to identify small molecule antagonists of the vitamin D receptor (VDR) signaling pathway - cell viability counter screen (AID 743225); further: nearly all actives have a fitted effect of over 50% in size
Details: VDR-bla HEK293T viability, CellTiter-Glo luminescence, 16 h; series mostly up to 61 µM
Inconclusive results are not listed. Calls of active or inactive are those of the source. The call rests on the fitted dose curve; in most records, active means well fitted cell-killing curve with a large enough effect in the repeat runs; inconclusive means weak or mixed curves, or effect the other way; inactive means no such curve, though single readings can be large or run the other way.
assayReadout: viability change, negative = cytotoxic

# molecule, assayReadout, observedValue
data = [
    ("CCCc1nc(C)c2c(=O)[nH]c(-c3cc(S(=O)(=O)N4CCN(CC)CC4)ccc3OCC)nn12", "viability change, negative = cytotoxic", "inactive"),
    ("CCCCCCCCCCCCN1CCOCC1", "viability change, negative = cytotoxic", "inactive"),
    ("CC(=O)CC/C=C(\\C)CC/C=C(\\C)CC/C=C(\\C)CCC=C(C)C", "viability change, negative = cytotoxic", "inactive"),
    ("COc1cc(CNC(=O)CCCC/C=C/C(C)C)ccc1O", "viability change, negative = cytotoxic", "inactive"),
    ("CO[C@@H]1COCC[C@@H]1N[C@@H]1CC[C@@](C(=O)N2CCc3ncc(C(F)(F)F)cc3C2)(C(C)C)C1", "viability change, negative = cytotoxic", "inactive"),
    ("CCOc1ccc2c(c1)C(C)CC(C)(C)N2 (stereo unspecified)", "viability change, negative = cytotoxic", "inactive"),
    ("O=C(O)c1ccccc1[N+](=O)[O-]", "viability change, negative = cytotoxic", "inactive"),
    ("C[C@]12CCC(=O)C=C1[C@@H]1C[C@@H]1[C@H]1[C@@H]3[C@@H]4C[C@@H]4[C@@]4(CCC(=O)O4)[C@@]3(C)CC[C@@H]12", "viability change, negative = cytotoxic", "inactive"),
    ("CC(C)Oc1ccccc1O", "viability change, negative = cytotoxic", "inactive"),
    ("C/C(=C\\C(C)CC(C)CC(C)C)C1CC(=O)OC1=O (stereo unspecified)", "viability change, negative = cytotoxic", "inactive"),
    ("CC[C@H](NC(C)C)[C@H](O)c1ccc(O)c2[nH]c(=O)ccc12", "viability change, negative = cytotoxic", "inactive"),
]

----------
Assay: qHTS assay to identify small molecule agonists or antagonists of the thyroid stimulating hormone receptor (TSHR) signaling pathway - wild type cell line counter screen (AID 1259384)
Conditions: HEK293 wild type, cAMP HTRF counter-screen, active compounds read high; series mostly up to 92.4 µM
Records with an inconclusive call do not appear. The source made the active and inactive calls. Calls come from the whole dose curve.
assayReadout: cAMP activity change

# compound, assayReadout, observedValue
rows = [
    ("CC1(COc2ccc(CC3SC(=O)NC3=O)cc2)CCCCC1 (stereo unspecified)", "cAMP activity change", "inactive"),
    ("COC(=O)Cc1cccc2ccccc12", "cAMP activity change", "inactive"),
    ("O=C(N[C@@H](Cc1ccccc1)[C@@H](O)C(=O)N1C[C@@H](O)[C@@H](O)C1)c1cc2cc(Cl)ccc2[nH]1", "cAMP activity change", "inactive"),
    ("CCCc1ccc(OC)cc1", "cAMP activity change", "inactive"),
    ("COC(=O)c1cc(Cl)ccc1[N+](=O)[O-]", "cAMP activity change", "inactive"),
    ("Cc1c(Nc2ncccc2C(=O)O)cccc1C(F)(F)F", "cAMP activity change", "inactive"),
]

----------
Test: qHTS assay to identify small molecule HDAC inhibitors (AID 1259364); further: potency means the concentration at half of the fitted maximal effect;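 further: wild-type HCT-116 cells with endogenous class I/II HDAC activity; nearly all actives have a fitted effect of over 45% in size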
Settings: HCT-116 HDAC-Glo I/II luminescence, 2 h; series mostly up to 92.4 µM
Inconclusive results are not listed. Active and inactive are the calls of the source. Calls come from the whole dose curve; as a rule, active = well fitted inhibition curve with a large enough effect in the repeat runs; inconclusive = weak or mixed curves; inactive = flat fitted curve, though single readings scatter.
assayReadout: Potency

# molecule, assayReadout, observedValue
records = [
    ("COc1ccnc2c1CCCCC2S(=O)c1nc2ccccc2[nH]1 (centres undefined)", "Potency", "inactive"),
    ("CCOc1ccc2c(c1)C(C)CC(C)(C)N2 (centres undefined)", "Potency", "inactive"),
    ("Cc1cc(C)c(C)c(O)c1", "Potency", "inactive"),
    ("OCCc1ccncc1", "Potency", "inactive"),
    ("CC/C=C/CCO", "Potency", "inactive"),
    ("O=Cc1ccc(Cl)c([N+](=O)[O-])c1", "Potency", "inactive"),
    ("c1ccc(CCNc2nc(-c3ccccc3)cs2)cc1", "Potency", "2980 nM (active)"),
    ("O=C(c1ccc(Cl)cc1)c1ccc(Cl)cc1", "Potency", "inactive"),
    ("CC(C)(C)c1cc(C=O)cc(C(C)(C)C)c1O", "Potency", "inactive"),
    ("C=CC(O)CCCCC (centres undefined)", "Potency", "inactive"),
    ("CCc1ccc2c(c1)C(=O)c1ccccc1C2=O", "Potency", "770 nM (active)"),
    ("O=C1c2ccccc2C(=O)c2c1ccc(O)c2O", "Potency", "29800 nM (active)"),
    ("CCc1cnc(C(=O)O)c(C(=O)O)c1", "Potency", "inactive"),
    ("O=S(=O)(O)c1cc(Cl)c(Cl)cc1Cl", "Potency", "inactive"),
]

----------
Experiment: qHTS assay to identify small molecule antagonists of the estrogen related receptor signaling pathway with the pleiotropic PPARgamma coactivator (PGC) from Tox21 10K library (AID 1224841); further: actives are mostly falling curves and most rising ones were filed inactive; nearly all actives have a fitted effect of over 50% in size
Conditions: PGC/ERR reporter cell line, ONE-Glo luciferase, 18 h; series mostly up to 92.4 µM
Inconclusive results are not listed. Activity calls are given as the source filed them. No rule for the calls is given here.
Labels: active, inactive

# molecule, class
rows = [
    ("CCC(=O)O[C@@H]1C[C@H]2CC[C@]1(C)C2(C)C", "inactive"),
    ("Oc1ccc(CCNCCCCCCNCCc2ccccc2)cc1O", "inactive"),
    ("OCCc1ccncc1", "inactive"),
    ("O=C(OCCCCCOC(=O)c1ccccc1)c1ccccc1", "inactive"),
    ("CC(=O)Nc1ccn(C2COC(COC(=O)c3ccccc3)O2)c(=O)n1 (stereo unspecified)", "inactive"),
    ("CCC(=O)O[C@]1(C(=O)COC)[C@@H](C)C[C@H]2[C@@H]3CCC4=CC(=O)C=C[C@]4(C)C3(F)[C@@H](O)C[C@@]21C (stereo partly specified)", "inactive"),
    ("CC(O)CN (stereo unspecified)", "inactive"),
    ("CCCCCO", "inactive"),
    ("CCCCCCCCCCCCN1CCOCC1", "inactive"),
    ("CCC(C)C1N=C(C)C(C)S1 (stereo unspecified)", "inactive"),
    ("CCCC(=O)OCc1ccccc1", "inactive"),
    ("Clc1cc(Cl)c2c(c1)N=C1CCCCCN1C2", "inactive"),
    ("CCn1nc(Cc2ccccc2)cc1C1CCN(C[C@H]2C[C@H](N(C)[C@@H](C(=O)O)C(C)C)C[C@@H]2c2cccc(F)c2)CC1", "inactive"),
    ("CCCCCCOC(=O)c1ccccc1", "inactive"),
    ("Nc1ccc(C(=O)Oc2ccccc2)c(O)c1", "inactive"),
    ("CC(C)C[C@H](NC(=O)[C@H](Cc1ccccc1)NC(=O)c1cnccn1)B(O)O", "active"),
    ("O=C(c1ccco1)N1CCNCC1", "inactive"),
    ("C=CC(=O)OCCCCCCCCCC", "inactive"),
    ("Nc1ccc(-c2ccc(F)cc2)cc1", "inactive"),
    ("CCN(CCCCOC(=O)c1ccc(OC)c(OC)c1)C(C)Cc1ccc(OC)cc1 (stereo unspecified)", "inactive"),
    ("O=Cc1ccc([N+](=O)[O-])cc1", "inactive"),
    ("Cc1c(-c2cccnc2)c2ccccc2n1CCCCC(=O)O", "inactive"),
    ("OCCOc1cccc(OCCO)c1", "inactive"),
    ("CNc1ccccc1", "inactive"),
    ("C[C@H](N)C(=O)N[C@@H](C)C(=O)NC1[C@H]2CN(c3nc4c(cc3F)c(=O)c(C(=O)O)cn4-c3ccc(F)cc3F)C[C@@H]12 (stereo partly specified)", "inactive"),
    ("CCOc1cc(OCC)c(C(C)=O)cc1OCC", "inactive"),
]

----------
Target: Nuclear receptor subfamily 1 group I member 2 (Homo sapiens)
Assay: Human pregnane X receptor (PXR) small molecule agonists, qHTS assay (AID 1346982); further: nearly all actives have a fitted effect of over 35% in size
Settings: PXR-Luc HepG2, CYP3A4 luciferase reporter, 24 h; series mostly up to 92.4 µM
Records with an inconclusive call do not appear. The source made the active and inactive calls. The call rests on the fitted dose curve; in most records, active means well fitted activation curve with a large enough effect in the repeat runs; inconclusive means weak or mixed curves; inactive means no such curve, though single readings can be large or run the other way.
Labels: 1 (yes) (active), 0 (no) (inactive)

# compound, assayedSystem, class
records = [
    ("CCn1nc(Cc2ccccc2)cc1C1CCN(C[C@H]2C[C@H](N(C)[C@@H](C(=O)O)C(C)C)C[C@@H]2c2cccc(F)c2)CC1", "Nuclear receptor subfamily 1 group I member 2 (Homo sapiens)", "0 (no)"),
    ("C=CC(O)CCCCC (centres undefined)", "Nuclear receptor subfamily 1 group I member 2 (Homo sapiens)", "0 (no)"),
    ("O=C1c2ccccc2C(=O)c2c1ccc(O)c2O", "Nuclear receptor subfamily 1 group I member 2 (Homo sapiens)", "0 (no)"),
    ("O=[N+]([O-])c1ccccc1CCO", "Nuclear receptor subfamily 1 group I member 2 (Homo sapiens)", "0 (no)"),
    ("Cc1ccc2c(Cl)cc(Cl)c(O)c2n1", "Nuclear receptor subfamily 1 group I member 2 (Homo sapiens)", "0 (no)"),
    ("CCOC(C)OCC", "Nuclear receptor subfamily 1 group I member 2 (Homo sapiens)", "0 (no)"),
    ("c1ccc(CCNc2nc(-c3ccccc3)cs2)cc1", "Nuclear receptor subfamily 1 group I member 2 (Homo sapiens)", "1 (yes)"),
    ("O=C(c1ccco1)N1CCNCC1", "Nuclear receptor subfamily 1 group I member 2 (Homo sapiens)", "0 (no)"),
    ("O=P(c1ccccc1)(c1ccccc1)c1ccccc1", "Nuclear receptor subfamily 1 group I member 2 (Homo sapiens)", "1 (yes)"),
    ("OCCOc1cccc(OCCO)c1", "Nuclear receptor subfamily 1 group I member 2 (Homo sapiens)", "0 (no)"),
    ("O=C(O)COCC(=O)O", "Nuclear receptor subfamily 1 group I member 2 (Homo sapiens)", "0 (no)"),
    ("CCOC(=O)CC(O)(CC(=O)OCC)C(=O)OCC", "Nuclear receptor subfamily 1 group I member 2 (Homo sapiens)", "0 (no)"),
    ("C=CC(=O)NC(C)(C)C", "Nuclear receptor subfamily 1 group I member 2 (Homo sapiens)", "0 (no)"),
    ("CC(C)C/C=C(\\C=O)c1ccccc1", "Nuclear receptor subfamily 1 group I member 2 (Homo sapiens)", "1 (yes)"),
]
